# Tested On: Caspase-3 (Homo sapiens, UniProt P42574)
# Sequence (P42574 29-175 limits assumed): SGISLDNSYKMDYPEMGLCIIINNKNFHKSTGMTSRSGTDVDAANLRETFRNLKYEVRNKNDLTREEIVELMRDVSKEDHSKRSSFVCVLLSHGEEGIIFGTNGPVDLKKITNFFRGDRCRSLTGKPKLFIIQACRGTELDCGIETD
# Sequence (P42574 176-277 limits assumed): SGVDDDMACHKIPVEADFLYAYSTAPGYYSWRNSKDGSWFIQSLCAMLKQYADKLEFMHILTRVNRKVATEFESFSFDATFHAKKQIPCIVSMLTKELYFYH
pKi: −log10 of the molar value. Where a SMILES comes first, the peptide text is derived from it. The star is where a group is joined. Bz = O=C(c1ccccc1)*
Measured pKi, listed per entry.

Molecule | pKi
COc1ccc(C(=O)NC(C(=O)N2N=C(C(C)(C)C)SC2C(=O)NC(C=O)CC(=O)O)C(C)C)cc1 (stereo not drawn) [Example 46b] | 6.00 to 8.00
C[C@H](NC(=O)c1cc(Cl)c(O)c(Cl)c1)C(=O)N1CCC[C@H]1C(=O)N[C@H](C=O)CC(=O)O [Example 122k] | < 6.00
CC(C)[C@H](NC(=O)c1ccccc1)C(=O)N1CC(c2ccccc2)[C@H]1C(=O)N[C@H](C=O)CC(=O)O (stereo partly drawn) [Example 24a] | < 6.00
CC(C)[C@H](NC(=O)c1nccc2ccccc12)C(=O)N[C@@H](C)C(=O)N[C@H](C=O)CC(=O)O [Example 29b] | < 6.00
CC(C)[C@H](NC(=O)c1ccccc1)C(=O)N[C@@H](C)C(=O)N[C@H](C=O)CC(=O)O [Example 29a] (Bz-Val-Ala-Asp-aldehyde) | < 6.00
C[C@H](NC(=O)c1ccc(N)c(Cl)c1)C(=O)N1CCC[C@H]1C(=O)N[C@H](C=O)CC(=O)O [Example 122b] | < 6.00
COc1c(C)cc(C(=O)N[C@@H](C)C(=O)N2CCC[C@H]2C(=O)N[C@H](C=O)CC(=O)O)cc1C [Example 122d] | < 6.00
CC(=O)Nc1ccc(C(=O)N[C@@H](C)C(=O)N2CCC[C@H]2C(=O)N[C@H](C=O)CC(=O)O)cc1Cl [Example 122f] | < 6.00
CC(=O)NC(CC(=O)O)C(=O)NC1CCN(C(CC(C)C)C(=O)NC(C=O)CC(=O)O)C1=O (stereo not drawn) [Example 32d] | 6.00 to 8.00

Data credit: patent US20030232986A1
